- system-tested: full-length beta-Catenin (Uniprot ID P35222) (Homo sapiens (Human)) (UniProt P35222)
- Sequence (P35222 whole entry): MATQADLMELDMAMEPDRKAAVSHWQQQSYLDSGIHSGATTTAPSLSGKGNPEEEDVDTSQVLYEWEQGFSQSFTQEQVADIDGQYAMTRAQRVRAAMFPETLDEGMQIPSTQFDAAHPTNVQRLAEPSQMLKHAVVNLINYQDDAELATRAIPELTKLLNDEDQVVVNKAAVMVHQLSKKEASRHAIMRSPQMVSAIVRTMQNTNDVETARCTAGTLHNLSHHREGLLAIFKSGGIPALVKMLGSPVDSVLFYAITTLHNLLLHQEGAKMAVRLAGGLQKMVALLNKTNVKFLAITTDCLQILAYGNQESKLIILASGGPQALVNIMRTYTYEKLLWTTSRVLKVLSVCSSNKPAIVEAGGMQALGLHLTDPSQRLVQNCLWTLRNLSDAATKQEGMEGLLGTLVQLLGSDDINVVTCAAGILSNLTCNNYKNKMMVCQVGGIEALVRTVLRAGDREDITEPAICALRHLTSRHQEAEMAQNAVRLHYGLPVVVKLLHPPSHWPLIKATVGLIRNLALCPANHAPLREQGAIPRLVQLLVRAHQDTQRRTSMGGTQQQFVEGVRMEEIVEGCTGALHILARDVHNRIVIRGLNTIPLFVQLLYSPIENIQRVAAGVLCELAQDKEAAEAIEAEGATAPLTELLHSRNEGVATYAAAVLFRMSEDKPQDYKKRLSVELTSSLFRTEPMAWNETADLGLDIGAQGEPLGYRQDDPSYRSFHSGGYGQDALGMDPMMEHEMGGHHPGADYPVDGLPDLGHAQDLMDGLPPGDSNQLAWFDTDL
- test-name: fluorescence polarization competition; full-length beta-catenin + 5FAM-TCF4(10-53) probe
Starred links: 1 amine or outer side, 2 acyl side, 3 side chain; linkers in the order of their positions; H or OH if unused. Positions of bridges follow the written chain, without caps; N, C: chain ends. Non-standard residues stand in square brackets, D forms with d. Primed or numbered codes have the meaning given here. *: point of attachment. B5(10) = 2-amino-2-(pent-4-en-1-yl)hept-6-enoic acid, bis(4-pentenyl)glycine, stitching residue bearing both staples, C=CCCCC(CCCC=C)(N[*:1])C(=O)[*:2]; B5(5) = 2,2-bis(4-pentenyl)glycine, 2-amino-2-(pent-4-en-1-yl)hept-6-enoic acid (stitching residue), C=CCCCC(CCCC=C)(N[*:1])C(=O)[*:2]; B5(33) = 2-amino-2-(pent-4-en-1-yl)hept-6-enoic acid (bis-pentenylglycine, two olefin side chains), C=CCCCC(CCCC=C)(N[*:1])C(=O)[*:2]; PyrS2 = (S)-3-amino-1-((pent-4-en-1-yloxy)carbonyl)pyrrolidine-3-carboxylic acid, C=CCCCOC(=O)N1CC[C@@](N[*:1])(C(=O)[*:2])C1; Phe(2-Cl) = N[C@@H](Cc1ccccc1Cl)C(=O)O; Bta = N[C@@H](Cc1csc2ccccc12)C(=O)O; Lys(iPr) = CC(C)NCCCC[C@H](N)C(=O)O; αAllylPro = C=CC[C@@]1(C(=O)O)CCCN1; tBuAla = CC(C)(C)C[C@H](N)C(=O)O; 3Thi = N[C@@H](Cc1ccsc1)C(=O)O; Thr(ol) = C[C@@H](O)[C@H](N)CO; iPr = CC(C)*
Output Y for records whose EC50 is lower than 90 nM, N for records at or above 90 nM.

Consider the following illustrative entries.
binder	label-value
Ac-[αAllylPro]D[tBuAla][B5(5)]DDAAFF[PyrS2][3Thi][Bta][Thr(ol)] (staple 1-4, 4-11) [I-1303]	Y
XDXXDDAAFTXFXQ (not fully specified; as printed: MeOPr-PL3-Asp-Npg-B5-Asp-Asp-Ala-Ala-Phe-Thr-S8-2C1F-BztA-Gln-NH2; stapled) [I-1261]	Y
Ac-[αAllylPro]D[tBuAla][B5(5)]DEAAFK(iPr)[PyrS2][Phe(2-Cl)][Bta]Q-NH2 (staple 1-4, 4-11) [I-1281]	Y
Ac-[αAllylPro]D[tBuAla][B5(10)]DDAAF[Lys(iPr)][PyrS2][Phe(2-Cl)][Bta]L-NH2 (staple 1-4, 4-11) [I-1280]	Y

Query binder follows.
## Input Report whether reported EC50 is lower than 90 nM (strictly) for Ac-[αAllylPro]D[tBuAla][B5(33)]DTLAFT[PyrS2]F[Bta]S-NH2 (staple 1-4, 4-11 (inferred); not fully specified; printed as Ac-PL3-Asp-Npg-B5-Asp-Thr-Leu-Ala-Phe-Thr-PyrS2-Phe-BztA-Ser-NH2) [I-1264]
## Output N
